biological target: Ab-15; assay: competition ELISA: peptide titrated against 1 nM Ab-15; competitor plate-bound CD28
Where no end group is shown, it is not given here.
REPORTED_ENDPOINT: pIC50
Schema: pIC50 number; meaning minus log10 of the concentration expressed in molar units.

Example results:
• GDWCPRDLWVHCFA (cysteine pairing not given here; also: biotinylated, site not given here, CD28 peptide mask) [Peptide-58] = 5.15
• FDWCPRDLWVHCFA (cysteine pairing not given here; also: biotinylated, site not given here, CD28 peptide mask) [Peptide-63] = 6.11
• QDWCPRDLWVHCFA (cysteine pairing not given here; also: biotinylated, site not given here, CD28 peptide mask) [Peptide-56] = 6.48
• IDWCPRDLWVHCFA (cysteine pairing not given here; also: biotinylated, site not given here, CD28 peptide mask) [Peptide-60] = 5.58

Ask: Given YDWCPRDLWVHCFA (cysteine pairing not given here; also: biotinylated, site not given here, CD28 peptide mask) [Peptide-68] , respond with its pIC50.
Reply: 5.49

Ask: Given EDWCPRDLWVHCFA (cysteine pairing not given here; also: biotinylated, site not given here, CD28 peptide mask) [Peptide-57] , respond with its pIC50.
Reply: 6.52

Ask: Given LDWCPRDLWVHCFA (cysteine pairing not given here; also: biotinylated, site not given here, CD28 peptide mask) [Peptide-61] , respond with its pIC50.
Reply: 6.20

Ask: Given ADWCPRDLWVHCFA (cysteine pairing not given here; also: biotinylated, site not given here, CD28 peptide mask) [Peptide-52] , respond with its pIC50.
Reply: 5.70

Ask: Given KDWCPRDLWVHCFA (cysteine pairing not given here; also: biotinylated, site not given here, CD28 peptide mask) [Peptide-62] , respond with its pIC50.
Reply: 6.72

Ask: Given SDWCPRDLWVHCFA (cysteine pairing not given here; also: biotinylated, site not given here, CD28 peptide mask) [Peptide-65] , respond with its pIC50.
Reply: 5.58

Ask: Given MDWCPRDLWVHCFA (cysteine pairing not given here; also: biotinylated, site not given here, CD28 peptide mask) [Peptide-41] , respond with its pIC50.
Reply: 7.22

Ask: Given DDWCPRDLWVHCFA (cysteine pairing not given here; also: biotinylated, site not given here, CD28 peptide mask) [Peptide-55] , respond with its pIC50.
Reply: 5.35

Ask: Given TDWCPRDLWVHCFA (cysteine pairing not given here; also: biotinylated, site not given here, CD28 peptide mask) [Peptide-66] , respond with its pIC50.
Reply: 6.23

Ask: Given RDWCPRDLWVHCFA (cysteine pairing not given here; also: biotinylated, site not given here, CD28 peptide mask) [Peptide-53] , respond with its pIC50.
Reply: 6.77
